target: RBDSARS-CoV (SARS-CoV S protein residues 318-510, C-terminal His-tag) (SARS-CoV, UniProt P59594 318-510); test: ELISA
measured_quantity: IC50

| binder | IC50 |
| --- | --- |
| 5p-20 (VHH) VHH: HVQLVESGGGLVQAGGSLRLSCAASGGTFSAYAMGWFRQVPGKEREFVAGIARSGSDYYGDSVKGRFIISRDNTKNTVYLQMNSLKAEDTGVYYCAADRAILYHGLSQRTQAYAYWGPGTQVTVSS | 100 to 1000 nM |

Q. Entry 5p-37 (VHH) VHH: QVQLVESGGGLVQAGGSLRLSCAASRIFSTSAMGWFRQAPGKEREFVAAISWSGTNTHYTDPVKGRFAISTDNAKSTVYLQMNSLKPEDTAVYYCAQGGWGIRQPIEVDYWGKGTQVTVSS : reported IC50 = ?
A. 10 to 100 nM

Source listed as patent US20250002563A1.
